Test system: phosphorylation of eIF4E at ser209 in MV4.11 cell line
METHOD_SUMMARY: MNK cellular activity phospho-eIF4E detection assay (Alphascreen Surefire)
Type: cell-based
CONDITION_SUMMARY: Homo sapiens; MV4.11 cell line, phospho-eIF4E (ser209) Alphascreen Surefire; read-out: P(IC50) elF4E (converted)
ASSAY_METRIC: IC50

O=C(NC1CCOCC1)c1nc2c(N3CC(CCN4CCCC4)c4cc(F)ccc43)ncnc2s1 (stereo not shown) [Example 149]; 63.1 nM

List the reported IC50 of each molecule below.
1. CC(C)Oc1cc(F)ccc1Nc1ncnc2sc(C(=O)N3CCC(CN(C)C)CC3)nc12 [Example 35]
2. CC1(C)CN(c2ncnc3sc(C(=O)NC4CCOCC4)nc23)c2ccc(F)cc21 [Example 105]
3. NCC1CN(c2ncnc3sc(C(=O)NC4CCOCC4)nc23)c2ccccc21 (stereo not shown) [Example 119]

["316 nM", "2.51 nM", "20 nM"]
